- Tested on: EW-11 (Ewing's Sarcoma)
- ASSAY METHOD TEXT: combination Emax (second highest fraction inhibited in the dose matrix, 72 h); higher = more inhibition; extreme values may be limits of the assay
Mark label 0 for combination Emax values under 0.7, and label 1 for everything at or above.

Tell me whether combination Emax is at least 0.7 here: CCc1c2c(nc3ccc(O)cc13)-c1cc3c(c(=O)n1C2)COC(=O)[C@]3(O)CC [SN-38] + O=C(c1cc(Cc2n[nH]c(=O)c3ccccc23)ccc1F)N1CCN(C(=O)C2CC2)CC1 [Olaparib] (first compound max 0.3 µM, 7x7, partner max 10 µM) label 1

Record: Cc1c2c(nn1C)CSCc1cc(n(C)n1)CSc1cc(c3ccccc3c1)OCCCc1c(C(=O)O)n(C)c3c-2c(Cl)ccc13 [AZD5991] + Nc1ccn([C@@H]2O[C@H](CO)[C@@H](O)C2(F)F)c(=O)n1 [Gemcitabine] (first compound max 1 µM, 7x7, partner max 0.3 µM) label 1

Record: N#Cc1cnc(Nc2cc(NC[C@H]3CNCCO3)c(C(F)(F)F)cn2)cn1 [SRA737] + C=CCn1c(=O)c2cnc(Nc3ccc(N4CCN(C)CC4)cc3)nc2n1-c1cccc(C(C)(C)O)n1 [AZD1775] (first compound max 10 µM, partner max 1 µM) label 0

Record: CC(=O)c1c(C)c2cnc(Nc3ccc(N4CCNCC4)cn3)nc2n(C2CCCC2)c1=O [Palbociclib] + Cc1c2c(nn1C)CSCc1cc(n(C)n1)CSc1cc(c3ccccc3c1)OCCCc1c(C(=O)O)n(C)c3c-2c(Cl)ccc13 [AZD5991] (first compound max 10 µM, 7x7, partner max 1 µM) label 0

Record: COc1cccc(OCCCN)c1-c1cc(Nc2cnc(C#N)cn2)n[nH]1 [Prexasertib] + C[C@@H]1COCCN1C2=NC(=NC(=C2)C3(CC3)[S@](=N)(=O)C)C4=C5C=CNC5=NC=C4 [AZD6738] (first compound max 1 µM, 7x7, partner max 10 µM) label 1

Record: CS(=O)(=O)CCNCc1ccc(-c2ccc3ncnc(Nc4ccc(OCc5cccc(F)c5)c(Cl)c4)c3c2)o1 [Lapatinib] + NC1(c2ccc(-c3nc4ccn5c(=O)[nH]nc5c4cc3-c3ccccc3)cc2)CCC1 [MK-2206] (first compound max 10 µM, 7x7, partner max 10 µM) label 1

====

Parameter combination Emax: see the listing below.
- Tested on: BE-13 (T-Lymphoblastic Leukemia)
- ASSAY METHOD TEXT: combination Emax (second highest fraction inhibited in the dose matrix, 72 h); higher = more inhibition; extreme values may be limits of the assay
Keep the answer to the number alone.

Bench note: what combination Emax did CN(CCO)CC[C@H](CSc1ccccc1)Nc1ccc(S(=O)(=O)NC(=O)c2ccc(N3CCC([C@@H](O)c4ccccc4-c4ccc(Cl)cc4)CC3)cc2)cc1S(=O)(=O)C(F)(F)F [AZD4320] + Cn1cnc2c(F)c(Nc3ccc(Br)cc3Cl)c(C(=O)NOCCO)cc21 [Selumetinib] (first compound max 1 µM, 7x7, partner max 3 µM) show? 0.995

Record: CC1(C)CCC(CN2CCN(c3ccc(C(=O)NS(=O)(=O)c4ccc(NCC5CCOCC5)c([N+](=O)[O-])c4)c(Oc4cnc5[nH]ccc5c4)c3)CC2)=C(c2ccc(Cl)cc2)C1 [Venetoclax] + C=CCn1c(=O)c2cnc(Nc3ccc(N4CCN(C)CC4)cc3)nc2n1-c1cccc(C(C)(C)O)n1 [AZD1775] (first compound max 1 µM, partner max 1 µM) 1

====

Parameter Bliss excess: see the listing below.
- Test system: YAPC (Pancreatic Carcinoma);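 also: after 72 h of two-drug dosing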
- ASSAY METHOD TEXT: Bliss excess, mean over the matrix (fraction); higher = more synergy

The following compounds have reported results that may help.
COMPOUND	REPORTED PROPERTY	MEASURED
CN(CCO)CC[C@H](CSc1ccccc1)Nc1ccc(S(=O)(=O)NC(=O)c2ccc(N3CCC([C@@H](O)c4ccccc4-c4ccc(Cl)cc4)CC3)cc2)cc1S(=O)(=O)C(F)(F)F [AZD4320] + Cn1cnc2c(F)c(Nc3ccc(Br)cc3Cl)c(C(=O)NOCCO)cc21 [Selumetinib] (first compound max 1 µM, 7x7, partner max 3 µM)	Bliss excess	0.0082
COc1cccc(OCCCN)c1-c1cc(Nc2cnc(C#N)cn2)n[nH]1 [Prexasertib] + C[C@@H]1COCCN1C2=NC(=NC(=C2)C3(CC3)[S@](=N)(=O)C)C4=C5C=CNC5=NC=C4 [AZD6738] (first compound max 1 µM, 7x7, partner max 10 µM)	Bliss excess	0.0689
Cc1c2c(nn1C)CSCc1cc(n(C)n1)CSc1cc(c3ccccc3c1)OCCCc1c(C(=O)O)n(C)c3c-2c(Cl)ccc13 [AZD5991] + CN(C)CCCOc1ccc(-c2ccc3ncc4c(c3c2)n(C2CCOCC2)c(=O)n4C)cn1 [AZD0156] (first compound max 1 µM, 7x7, partner max 1 µM)	Bliss excess	0.0081

Now consider a different compound.
API: value(readout=Bliss excess, system=YAPC (Pancreatic Carcinoma)) for record C[C@@H](c1ccc2nccn2c1)n1nnc2ncc(-c3cnn(C)c3)nc21 [Savolitinib] + Cc1c2c(nn1C)CSCc1cc(n(C)n1)CSc1cc(c3ccccc3c1)OCCCc1c(C(=O)O)n(C)c3c-2c(Cl)ccc13 [AZD5991] (first compound max 1 µM, 7x7, partner max 1 µM) -0.0425

====

- Test system: L-428 (Hodgkin's Lymphoma)
- ASSAY METHOD TEXT: combination Emax (second highest fraction inhibited in the dose matrix, 72 h); higher = more inhibition; extreme values may be limits of the assay
REPORTED PROPERTY: combination Emax
Keep the answer to the number alone.

COMPOUND	STUDY SYSTEM	combination Emax
C[C@@H](c1ccc2nccn2c1)n1nnc2ncc(-c3cnn(C)c3)nc21 [Savolitinib] + CC1(C)CCC(CN2CCN(c3ccc(C(=O)NS(=O)(=O)c4ccc(NCC5CCOCC5)c([N+](=O)[O-])c4)c(Oc4cnc5[nH]ccc5c4)c3)CC2)=C(c2ccc(Cl)cc2)C1 [Venetoclax] (first compound max 1 µM, 7x7, partner max 1 µM)	L-428 (Hodgkin's Lymphoma)	0.117

Now consider a different compound.
Bench note: what combination Emax did COc1nnc2ccc(N3CCC(c4ccc(OCCN5CCN(C)C(=O)[C@H]5C)cc4)CC3)nn12 [AZD5153] + CN(CC[C@H](CSC1=CC=CC=C1)NC2=C(C=C(C=C2)S(=O)(=O)NC(=O)C3=CC=C(C=C3)N4CCC(CC4)[C@H](C5=CC=CC=C5C6=CC=C(C=C6)Cl)O)S(=O)(=O)C(F)(F)F)CCO [AZD4320] (first compound max 1 µM, 7x7, partner max 1 µM) show? 0.943

====

- Tested on: LNZTA3WT4 (Low Grade Glioma)
- ASSAY METHOD TEXT: combination Emax (second highest fraction inhibited in the dose matrix, 72 h); higher = more inhibition; extreme values may be limits of the assay
Parameter combination Emax: see the listing below.
Keep the answer to the number alone.

The following molecules have reported results that may help.
MOLECULE	MEASURED
CC1(C)CCC(CN2CCN(c3ccc(C(=O)NS(=O)(=O)c4ccc(NCC5CCOCC5)c([N+](=O)[O-])c4)c(Oc4cnc5[nH]ccc5c4)c3)CC2)=C(c2ccc(Cl)cc2)C1 [Venetoclax] + C[C@@H]1COCCN1C2=NC(=NC(=C2)C3(CC3)[S@](=N)(=O)C)C4=C5C=CNC5=NC=C4 [AZD6738] (first compound max 1 µM, 7x7, partner max 10 µM)	0.789
COc1nnc2ccc(N3CCC(c4ccc(OCCN5CCN(C)C(=O)[C@H]5C)cc4)CC3)nn12 [AZD5153] + CCN(CCO)CCCOc1ccc2c(Nc3cc(CC(=O)Nc4cccc(F)c4)[nH]n3)ncnc2c1 [AZD2811] (first compound max 1 µM, 7x7, partner max 1 µM)	0.457

Now consider a different molecule.
Bench note: what combination Emax did CC1(C)CCC(CN2CCN(c3ccc(C(=O)NS(=O)(=O)c4ccc(NCC5CCOCC5)c([N+](=O)[O-])c4)c(Oc4cnc5[nH]ccc5c4)c3)CC2)=C(c2ccc(Cl)cc2)C1 [Venetoclax] + Cn1cnc2c(F)c(Nc3ccc(Br)cc3Cl)c(C(=O)NOCCO)cc21 [Selumetinib] (first compound max 1 µM, 7x7, partner max 3 µM) show? 0.308

====

- System: A673 (Ewing's Sarcoma)
- ASSAY METHOD TEXT: combination Emax (second highest fraction inhibited in the dose matrix, 72 h); higher = more inhibition; extreme values may be limits of the assay
Parameter combination Emax: see the listing below.
Keep the answer to the number alone.

MOLECULE	REPORTED PROPERTY	MEASURED
CC1(C)CCC(CN2CCN(c3ccc(C(=O)NS(=O)(=O)c4ccc(NCC5CCOCC5)c([N+](=O)[O-])c4)c(Oc4cnc5[nH]ccc5c4)c3)CC2)=C(c2ccc(Cl)cc2)C1 [Venetoclax] + CS(=O)(=O)CCNCc1ccc(-c2ccc3ncnc(Nc4ccc(OCc5cccc(F)c5)c(Cl)c4)c3c2)o1 [Lapatinib] (first compound max 1 µM, 7x7, partner max 10 µM)	combination Emax	0.207
C[C@@H](Oc1cc(-c2cnn(C3CCNCC3)c2)cnc1N)c1c(Cl)ccc(F)c1Cl [Crizotinib] + CC1=C(C(=CC=C1)Cl)NC(=O)C2=CN=C(S2)NC3=CC(=NC(=N3)C)N4CCN(CC4)CCO [Dasatinib] (first compound max 10 µM, 7x7, partner max 2 µM)	combination Emax	0.681
CC1(C)CCC(CN2CCN(c3ccc(C(=O)NS(=O)(=O)c4ccc(NCC5CCOCC5)c([N+](=O)[O-])c4)c(Oc4cnc5[nH]ccc5c4)c3)CC2)=C(c2ccc(Cl)cc2)C1 [Venetoclax] + CN(C)CCCOc1ccc(-c2ccc3ncc4c(c3c2)n(C2CCOCC2)c(=O)n4C)cn1 [AZD0156] (first compound max 1 µM, 7x7, partner max 1 µM)	combination Emax	0.835
CS(=O)(=O)CCNCc1ccc(-c2ccc3ncnc(Nc4ccc(OCc5cccc(F)c5)c(Cl)c4)c3c2)o1 [Lapatinib] + Cn1cnc2c(F)c(Nc3ccc(Br)cc3Cl)c(C(=O)NOCCO)cc21 [Selumetinib] (first compound max 10 µM, 7x7, partner max 10 µM)	combination Emax	0.343
CN(CCO)CC[C@H](CSc1ccccc1)Nc1ccc(S(=O)(=O)NC(=O)c2ccc(N3CCC([C@@H](O)c4ccccc4-c4ccc(Cl)cc4)CC3)cc2)cc1S(=O)(=O)C(F)(F)F [AZD4320] + CS(=O)(=O)CCNCc1ccc(-c2ccc3ncnc(Nc4ccc(OCc5cccc(F)c5)c(Cl)c4)c3c2)o1 [Lapatinib] (first compound max 1 µM, 7x7, partner max 10 µM)	combination Emax	0.973

Bench note: what combination Emax did COc1cccc(OCCCN)c1-c1cc(Nc2cnc(C#N)cn2)n[nH]1 [Prexasertib] + C=CCn1c(=O)c2cnc(Nc3ccc(N4CCN(C)CC4)cc3)nc2n1-c1cccc(C(C)(C)O)n1 [AZD1775] (first compound max 1 µM, partner max 1 µM) show? 0.946
